Cited source for all entries: patent US20240199644A1

Molecular target: GppNp-loaded HIS-KRAS(G12D, aa 1-169) / cRAF RBD (Homo sapiens (Human), UniProt P01116, G12D)
Sequence (P01116 other isoform, or with tags, fused parts or gaps G12D): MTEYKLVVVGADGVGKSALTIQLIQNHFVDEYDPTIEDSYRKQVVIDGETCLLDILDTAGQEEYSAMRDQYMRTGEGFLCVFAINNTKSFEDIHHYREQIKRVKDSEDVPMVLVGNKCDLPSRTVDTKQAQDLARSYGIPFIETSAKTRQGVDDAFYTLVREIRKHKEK
Assay: GTP-KRAS and cRAF interaction assay
Assay type: biochemical
Conditions: HTRF; 2.0 nM GppNp-loaded HIS-KRAS(G12D), 35 nM cRAF RBD, 100 μM GTP, 2 hours at 25° C.
Method: GppNp-loaded HIS-KRAS(G12D, aa 1-169) was pre-incubated with a compound in the presence of 200 μM GTP in a 384-well plate (Greiner) for 15 min, then cRAF RBD(GST tag, aa 50-132, CreativeBioMart), MAb Anti GST-d2 (Cisbio) and MAb Anti 6HIS-Tb cryptate Gold (Cisbio) were added to the assay wells (Final concentration: 2.0 nM GppNp-loaded HIS-KRAS(G12D), 100 μM GTP, 35 nM cRAF RBD, 1 μg/mL MAb Anti GST-d2, 52.5 ng/mL MAb Anti 6HIS-Tb cryptate Gold) and incubated for 2 hours at 25° C. […]
pIC50: −log10 of the molar value.
In this scheme, each record receives a class according to its pIC50; the ranges are 1 = under 6, 2 = from 6 up to 8, 3 = 8 and over

INPUT: Textbook exercise: identify the category of the molecule given here, "C#Cc1cccc2cc(O)cc(-c3cc4c5c(nc(OCC6(CN7CCOCC7)CC6)nc5c3F)N3C[C@H]5CC[C@H](N5)[C@@H]3CO4)c12" , according to its measured value.
OUTPUT: 2

INPUT: Textbook exercise: identify the category of the molecule given here, "CN(C)CC1(COc2nc3c4c(c(Cl)c(-c5cc(O)cc6ccccc56)cc4n2)OC[C@H]2CNCCN32)CC1" , according to its measured value.
OUTPUT: 1

INPUT: Textbook exercise: identify the category of the molecule given here, "C#Cc1c(F)ccc2cc(O)cc(-c3nc4c5c(nc(OC[C@@]67CCCN6C[C@H](F)C7)nc5c3F)N3C[C@@H]5CC[C@@H](N5)[C@@H]3CO4)c12" , according to its measured value.
OUTPUT: 2

INPUT: Textbook exercise: identify the category of the molecule given here, C#Cc1c(F)ccc2cc(O)cc(-c3c(Cl)c4c5c(nc(OC[C@@]67CCCN6C[C@H](F)C7)nc5c3F)N3C[C@H]5CC[C@H](N5)[C@H]3CO4)c12 (atropisomer, axis not shown) [Compound 13] , according to its measured value.
OUTPUT: 3

INPUT: Textbook exercise: identify the category of the molecule given here, "C#Cc1cccc2cc(O)cc(-c3cc4nc(OC[C@@]56CCCN5C[C@H](F)C6)nc5c4c(c3Cl)OC[C@@H]3[C@@H]4CC[C@H](CN53)N4)c12" , according to its measured value.
OUTPUT: 2

INPUT: Textbook exercise: identify the category of the molecule given here, "C#Cc1c(F)ccc2cc(O)cc(-c3nc4c5c(nc(OC[C@@]67CCCN6C[C@H](F)C7)nc5c3F)N3C[C@@H]5CC[C@@H](N5)[C@H]3CO4)c12" , according to its measured value.
OUTPUT: 1

INPUT: Textbook exercise: identify the category of the molecule given here, "Oc1cc(-c2cc3nc(OC[C@@]45CCCN4C[C@H](F)C5)nc4c3c(c2Cl)OC[C@H]2CNCCN42)c2ccccc2c1" , according to its measured value.
OUTPUT: 1

INPUT: Textbook exercise: identify the category of the molecule given here, "C#Cc1c(F)ccc2cc(O)cc(-c3nc4c5c(nc(OC[C@@]67CCCN6C[C@H](F)C7)nc5c3F)N3C[C@H]5CC[C@H](N5)[C@H]3CO4)c12" , according to its measured value.
OUTPUT: 3
